ASSAY NAME: in vitro
TEST CONDITIONS: human, hela cells
MEASURE NAME: CC50 (µg/mL)
Return type: number; implicit unit µg/mL.

>  <STRUCTURE STRING>
CCc1cc2c(cc1Cl)nc(CNc1ccncc1)n2-c1ccccc1

>  <UOM>
µg/mL

>  <READOUT NUMBER>
17.8

$$$$

API: the following record is the query input.
**Q:** Requested read-out: CC50. Entry: "CCc1ccc2nc(CNc3ccncc3)n(-c3ccccc3)c2c1"
**A:** 56.2

----------
ASSAY NAME: Cytotoxicity, morphology of LLC-MK2 cells
TEST CONDITIONS: monkey
MEASURE NAME: CC50

Please review the following examples before continuing.
>  <STRUCTURE STRING>
COc1cc2nc(CNc3ccncc3)[nH]c2cc1Cl

>  <MEASURE NAME>
CC50

>  <RESULT>
> 100 µg/mL

$$$$
>  <STRUCTURE STRING>
Fc1ccc2nc(CNc3ccncc3)n(-c3ccccc3)c2c1

>  <MEASURE NAME>
CC50

>  <RESULT>
> 100 µg/mL

$$$$
>  <STRUCTURE STRING>
Cc1cc2nc(CNc3ccncc3)[nH]c2cc1Br

>  <MEASURE NAME>
CC50

>  <RESULT>
177 µg/mL

$$$$
>  <STRUCTURE STRING>
Cn1c(CNc2ccncc2)nc2cc(Cl)ccc21

>  <MEASURE NAME>
CC50

>  <RESULT>
> 100 µg/mL

$$$$

API: the following record is the query input.
**Q:** Requested read-out: CC50. Entry: "CCc1ccc2c(c1)nc(CNc1ccncc1)n2C"
**A:** > 100 µg/mL

----------
Test system: poliovirus type 2 (Polio2)
ASSAY NAME: microbe, parasite or virus in culture
Format: cell-based
TEST CONDITIONS: CI = CD50 (LLC-MK2)/IC50 (plaque)
MEASURE NAME: CI Polio2 (C)/(A)

Please review the following examples before continuing.
>  <STRUCTURE STRING>
CC(C)CCn1c(CNc2ccncc2)nc2ccccc21.Cl

>  <CI Polio2 (C)/(A)>
329

$$$$
>  <STRUCTURE STRING>
CCCCn1c(CNc2ccncc2)nc2ccccc21

>  <CI Polio2 (C)/(A)>
> 625

$$$$

API: the following record is the query input.
**Q:** Requested read-out: CI Polio2 (C)/(A). Entry: "CCCn1c(CNc2ccncc2)nc2ccccc21"
**A:** > 556

----------
ASSAY NAME: in vitro
TEST CONDITIONS: monkey, llc-mk2 cells
MEASURE NAME: CC50 (µg/mL)
Return type: number; implicit unit µg/mL.

Please review the following examples before continuing.
>  <COMPOUND>
CC(C)CCn1c(CNc2ccncc2)nc2ccccc21.Cl [L, hydrochloride]

>  <CC50 (µg/mL)>
1410

$$$$
>  <COMPOUND>
CCc1cc2nc(CNc3ccncc3)[nH]c2cc1Cl

>  <CC50 (µg/mL)>
88.4

$$$$
>  <COMPOUND>
Cc1cc(Cl)cc2[nH]c(CNc3ccncc3)nc12

>  <CC50 (µg/mL)>
707

$$$$
>  <COMPOUND>
Brc1ccc2[nH]c(CNc3ccncc3)nc2c1

>  <CC50 (µg/mL)>
312

$$$$

API: the following record is the query input.
**Q:** Requested read-out: CC50. Entry: "c1ccc2c(c1)nc(CNc1ccncc1)n2C1CCCC1"
**A:** 1410
